meta.source: ChEMBL document CHEMBL4304784

What viability at 48 h, 50 µM was measured for each of the following?
- ASSAY EXPLANATION: Cytotoxicity against human SH-SY5Y cells assessed as cell viability at 50 uM incubated for 48 hrs by MTT assay (reference value: 100 +/- 12.00%)
- Format: cell-based
- EXPERIMENTAL CONDITIONS: read-out: Activity
Numbers only, in %.

Example compounds with recorded viability at 48 h, 50 µM:
RECORD SMILES | QUANTITY MEASURED | MEASUREMENT UNIT | MEASUREMENT
COc1cc2c(cc1OC)CN(CCCCN1C(=O)CCc3ccccc31)CC2 | viability at 48 h, 50 µM | % | 68
O=c1oc(-c2ccccc2)nn1CCCCN1CCN(C2CCCCC2)CC1 | viability at 48 h, 50 µM | % | 75

Quick one: give me viability at 48 h, 50 µM for each item below, same order please.
1. Cc1ccc(CN(C)CCCCN2C(=O)CCc3ccccc32)c(C)c1
2. O=C1CCc2ccccc2N1CCCCN1CCN(C2CCCCC2)CC1
3. O=C1CCc2ccccc2N1CCCCN1CCC2(CC1)OCc1ccccc12
4. COc1cc2c(cc1OC)CN(CCCCn1nc(-c3ccccc3)oc1=O)CC2
5. Cc1ccc(CN(C)CCCCn2nc(-c3ccccc3)oc2=O)c(C)c1
6. O=c1oc(-c2ccccc2)nn1CCCCN1CCC2(CC1)OCc1ccccc12
7. O=C1CCc2ccccc2N1CCCCN1CCN(c2ccc(F)cc2)CC1

Result:
[90, 86, 40, 96, 75, 50, 116]

----------
- ASSAY EXPLANATION: Cytotoxicity against human SH-SY5Y cells assessed as decrease in cell viability incubated for 48 hrs by MTT assay
- Type: cell-based
- EXPERIMENTAL CONDITIONS: read-out: LD50
What CC50 at 48 h was measured for each of the following?
Give bare numbers, in µM.

Quick one: give me CC50 at 48 h for each item below, same order please.
1. O=c1oc(-c2ccccc2)nn1CCCCN1CCN(C2CCCCC2)CC1
2. O=C1CCc2ccccc2N1CCCCN1CCN(C2CCCCC2)CC1
3. COc1cc2c(cc1OC)CN(CCCCN1C(=O)CCc3ccccc31)CC2
4. O=C1CCc2ccccc2N1CCCCN1CCN(c2ccc(F)cc2)CC1
5. COc1cc2c(cc1OC)CN(CCCCn1nc(-c3ccccc3)oc1=O)CC2
6. O=C1CCc2ccccc2N1CCCCN1CCC2(CC1)OCc1ccccc12
7. O=c1oc(-c2ccccc2)nn1CCCCN1CCC2(CC1)OCc1ccccc12
8. Cc1ccc(CN(C)CCCCn2nc(-c3ccccc3)oc2=O)c(C)c1

Result:
[81, 493, 36, 63, 77, 60, 53, 77]

Ask: State, in one line, measured CC50 at 48 h of Cc1ccc(CN(C)CCCCN2C(=O)CCc3ccccc32)c(C)c1
Result: 231

----------
- ASSAY EXPLANATION: Cytotoxicity against human HeLa cells assessed as decrease in cell viability incubated for 48 hrs by MTT assay
- Assay type: cell-based
- EXPERIMENTAL CONDITIONS: read-out: LD50
What CC50 at 48 h was measured for each of the following?
Numbers only, in µM.

RECORD SMILES | MEASUREMENT
O=C1CCc2ccccc2N1CCCCN1CCC2(CC1)OCc1ccccc12 | 55
O=c1oc(-c2ccccc2)nn1CCCCN1CCC2(CC1)OCc1ccccc12 | 55
O=C1CCc2ccccc2N1CCCCN1CCN(C2CCCCC2)CC1 | 265

Quick one: give me CC50 at 48 h for each item below, same order please.
1. O=C1CCc2ccccc2N1CCCCN1CCN(c2ccc(F)cc2)CC1
2. COc1cc2c(cc1OC)CN(CCCCN1C(=O)CCc3ccccc31)CC2
3. Cc1ccc(CN(C)CCCCn2nc(-c3ccccc3)oc2=O)c(C)c1
4. COc1cc2c(cc1OC)CN(CCCCn1nc(-c3ccccc3)oc1=O)CC2
5. Cc1ccc(CN(C)CCCCN2C(=O)CCc3ccccc32)c(C)c1
6. O=c1oc(-c2ccccc2)nn1CCCCN1CCN(C2CCCCC2)CC1

Result:
[128, 83, 69, 69, 76, 76]
